Reference for the values: ChEMBL document CHEMBL1145840

Mu-type opioid receptor (Rattus norvegicus): reported pKi for various compounds.
Sequence (P33535 whole entry): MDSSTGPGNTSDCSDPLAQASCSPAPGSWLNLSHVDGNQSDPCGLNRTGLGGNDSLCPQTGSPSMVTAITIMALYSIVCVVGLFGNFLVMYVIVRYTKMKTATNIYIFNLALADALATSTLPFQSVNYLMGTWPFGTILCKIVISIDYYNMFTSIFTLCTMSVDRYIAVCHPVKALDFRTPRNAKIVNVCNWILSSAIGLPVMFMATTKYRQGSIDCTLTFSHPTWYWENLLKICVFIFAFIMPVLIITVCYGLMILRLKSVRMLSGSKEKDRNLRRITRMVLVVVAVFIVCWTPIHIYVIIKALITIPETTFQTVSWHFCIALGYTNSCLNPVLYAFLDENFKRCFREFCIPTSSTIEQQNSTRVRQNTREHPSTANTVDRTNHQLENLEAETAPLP
The read-out pKi is expressed as -log10 of concentration in moles per litre.

// known answers, use as guide
compound=CC(C)[C@@H](CN1CC[C@@](C)(c2cccc(O)c2)[C@@H](C)C1)NC(=O)[C@H]1Cc2ccccc2CN1 recorded_metric=pKi assay_value=6.11
compound=CC(C)[C@@H](CN1CC[C@](C)(c2cccc(O)c2)[C@H](C)C1)NC(=O)[C@H]1Cc2ccc(O)cc2CN1 recorded_metric=pKi assay_value=6.86
compound=CC(=O)N1Cc2cc(O)ccc2C[C@@H]1C(=O)N[C@H](CN1CC[C@@](C)(c2cccc(O)c2)[C@@H](C)C1)C(C)C recorded_metric=pKi assay_value=6.12
compound=CC(C)[C@@H](CN1CC[C@@](C)(c2cccc(O)c2)[C@@H](C)C1)NC(=O)[C@H]1Cc2ccc(O)cc2CN1C(=O)CN(C)C recorded_metric=pKi assay_value=6.79
compound="CC(C)[C@@H](CN1CC[C@@](C)(c2cccc(O)c2)[C@@H](C)C1)NC(=O)[C@@H](N)Cc1ccc(O)cc1 (stereo in doubt; form 2)" recorded_metric=pKi assay_value=6.20
compound=CC(C)[C@@H](CN1CC[C@@](C)(c2cccc(O)c2)[C@@H](C)C1)NC(=O)[C@H]1Cc2ccc(O)cc2CN1C recorded_metric=pKi assay_value=7.43

// query For Mu-type opioid receptor (Rattus norvegicus), provide pKi of CC(C)[C@@H](CN1CC[C@@](C)(c2cccc(O)c2)[C@@H](C)C1)NC(=O)[C@@H](N)Cc1ccc(O)cc1 (stereo in doubt; form 1) please.
// result 6.68

// query Param readout= pKi; system= Mu-type opioid receptor (Rattus norvegicus); entry= "N=C(N)Nc1ccc2[nH]c3c(c2c1)C[C@@]1(O)[C@H]2Cc4ccc(O)c5c4[C@@]1(CCN2CC1CC1)[C@H]3O5" ; returns value.
// result 7.43

// query Enter reported pKi observed with Mu-type opioid receptor (Rattus norvegicus) for "CC(C)[C@@H](CN1CC[C@@](C)(c2cccc(O)c2)[C@@H](C)C1)NC(=O)[C@@H]1Cc2ccc(O)cc2CN1"
// result 6.22

// query Checklist item: pKi tested on Mu-type opioid receptor (Rattus norvegicus), entry "CC(C)[C@@H](CN1CC[C@@](C)(c2cccc(O)c2)[C@@H](C)C1)NC(=O)[C@H]1Cc2ccc(O)cc2CN1" , value?
// result 8.43
